- Assayed System: CLK3 (human)
- Method Notes: radiometric filter-binding kinase assay, Kinase HotSpot
- Experimental Parameters: compound 0.5 µM; ATP 10 µM
Readout: residual activity
Record the result as a number with its unit.

O=C1C(Cl)=C(N2C(=O)CCC2=O)C(=O)c2ccccc21: 114%
C[C@@H]1CCN(C(=O)CC#N)C[C@@H]1N(C)c1ncnc2[nH]ccc12: 106%
O=C1NC(=O)c2c1c1c3ccccc3[nH]c1n1cncc21: 48.2%
COc1ccc(S(=O)(=O)N(CCO)c2ccccc2CN(C)C/C=C/c2ccc(Cl)cc2)cc1: 100%
COc1ccc(C(=O)Nc2sc3c(c2C(N)=O)CCCC3)cc1OC: 63%

Which residual activity is listed for CN(C)CCCn1cc(C2=C(c3c[nH]c4ccccc34)C(=O)NC2=O)c2ccccc21 ?
94.3%

Which residual activity is listed for COc1ccc(Cl)cc1NC(=O)Nc1cc(C)nc2ccccc12 ?
97.5%

Which residual activity is listed for COc1cc2ncnc(Nc3ccc(OCc4ccccc4)cc3)c2cc1OC ?
98.2%

Which residual activity is listed for CCCCc1c(-c2ccc(OC)cc2)[nH]c2nccnc12 ?
116%

Which residual activity is listed for CS(=O)(=O)CCNCc1ccc(-c2ccc3ncnc(Nc4ccc(OCc5cccc(F)c5)c(Cl)c4)c3c2)o1 ?
107%

Which residual activity is listed for O=C1Nc2ccc(Br)cc2/C1=C\c1cc2c([nH]1)CCCC2 ?
101%

Which residual activity is listed for O=C1c2ccccc2-c2nc3nnnn3nc21 ?
81.2%

Which residual activity is listed for N#Cc1c[nH]c2c[nH]/c(=N\Cc3cccnc3)cc2/c1=N\c1ccc(F)c(Cl)c1 ?
96.7%

Which residual activity is listed for COc1ccc2c(c1)/C(=C/c1cnc[nH]1)C(O)=N2 ?
103%

Which residual activity is listed for Fc1ccc(-c2nc3n(c2-c2ccncc2)CCS3)cc1 ?
94.4%

Which residual activity is listed for N#C/C(=C\c1ccc(O)c(O)c1)C(=O)NCc1ccccc1 ?
125%

Which residual activity is listed for CC(C)(C)c1cc(C=C(C#N)C#N)cc(Br)c1O ?
122%

Which residual activity is listed for Cc1nc(-c2ccccc2)c(-c2ccncc2)o1 ?
90.6%

Ref: the kinase profiling compilation of Christmann-Franck et al. (2016)
